- assay_protocol: Single-dose toxicokinetic and tolerability study of prodrugs in dogs
- Type: in vivo, dog
- settings: female, dog, plasma, oral, 125 mg/kg, dog 4201F, day 8, Ibb 125 mg/kg BID dry-filled capsules; read-out: C24h
assay_endpoint: concentration at 24 h (nM)
A number alone suffices; assume nM.

Req: If you can, please state the reported concentration at 24 h value of `O=C(C(=O)N1CCN(C(=O)c2ccccc2)CC1)c1c[nH]c2c(-n3ccnn3)ncc(F)c12` .
Resp: 1960

* * *

- assay_protocol: 2-week oral dose rat toxicology / TK study F
- Type: in vivo
- settings: rat, plasma; rats PO 75 mg/kg (susp), historical
assay_endpoint: Cmax (µM)
Give just the number in µM; leave the unit off.

Req: Report Cmax for COc1cnc(-n2cnc(C)n2)c2[nH]cc(C(=O)C(=O)N3CCN(C(=O)c4ccccc4)CC3)c12 [IVc] please.
Resp: 65

* * *

- assay_protocol: IV and PO pharmacokinetic studies of prodrug salts (Iab, Ibb, Icb) in the dog, with historical parent data
- Format: in vivo, beagle dogs
- settings: male, beagle, plasma, after IV prodrug (~1 mg/kg parent equivalent), analyte = label, read-out: AUCtot (μM · hr), IV
- Method: The IV and PO studies of Iab were conducted in a crossover fashion in three male beagle dogs (11±1.1 kg, Marshall Farms USA Inc., North Rose, N.Y.). There was a two-week washout period between the IV and PO studies. In the IV study, Iab was infused via the cephalic vein at 1.2 mg/kg (free acid, or 0.95 mg/kg of IVa equivalent) over 5 min at a constant rate of 0.1 mL/kg/min. The concentration of the dosing solution was 2.4 mg/mL, and the dosing volume was 0.5 mL/kg. […]
// reported AUC for each item listed
I only need the number, in µM·h, no unit after it.

molecule	value_observed
COc1cnc(OC)c2c1c(C(=O)C(=O)N1CCN(C(=O)c3ccccc3)CC1)cn2COP(=O)(O)O [Iab]	0.56

Switching to the query record.
Req: Which AUC value is on record for COc1ncc(OC)c2c(C(=O)C(=O)N3CCN(C(=O)c4ccccc4)CC3)c[nH]c12 [IVa] ?
Resp: 13

* * *

- assay_protocol: Effect of food on oral absorption of IVa in dogs after Iab or IVa capsules
- Type: in vivo, dog
- settings: dog, plasma, po, 20 mg/kg, IVa after Iab dry-filled capsules, Fed
assay_endpoint: Tmax
Reply with a number, then the unit it belongs to.

Req: If you can, please state the reported Tmax value of `COc1ncc(OC)c2c(C(=O)C(=O)N3CCN(C(=O)c4ccccc4)CC3)c[nH]c12` .
Resp: 1.5 h

* * *

# half-life at 10 μM per entry
- target_system: human placental alkaline phosphatase (ALP) (Homo sapiens)
- Construct: To study the hydrolysis of lab in a purified form of human ALP, Iab was incubated in human placental ALP solutions; host or cells: human placenta (inferred from the name and from 'ALP derived from humans')
- Sequence (P05187 23-506 limits assumed): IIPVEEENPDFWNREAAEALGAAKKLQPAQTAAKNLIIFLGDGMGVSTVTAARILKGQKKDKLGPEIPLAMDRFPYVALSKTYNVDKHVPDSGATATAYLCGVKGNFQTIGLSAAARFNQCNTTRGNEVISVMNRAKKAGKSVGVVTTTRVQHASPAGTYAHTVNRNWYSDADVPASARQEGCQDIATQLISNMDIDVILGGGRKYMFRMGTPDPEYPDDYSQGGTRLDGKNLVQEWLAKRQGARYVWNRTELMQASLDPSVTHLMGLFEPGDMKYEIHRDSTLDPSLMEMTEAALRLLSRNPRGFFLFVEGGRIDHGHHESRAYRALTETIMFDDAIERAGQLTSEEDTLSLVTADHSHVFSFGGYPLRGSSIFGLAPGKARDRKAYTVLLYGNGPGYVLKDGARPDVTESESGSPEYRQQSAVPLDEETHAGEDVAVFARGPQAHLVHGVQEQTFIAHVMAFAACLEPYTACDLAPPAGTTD
- assay_protocol: Hydrolysis of prodrug in human placental ALP solutions
- Assay type: in vitro ADME
- settings: human placental ALP solution, pH 7.5, ALP Activity 100 Units/L, 37°C, 120 min, read-out: t1/2 (min) of prodrug disappearance
- Experimental: Solid human placental ALP was obtained from Sigma (P-3895, St. Louis, Mo.). […] Solutions of 100 and 10 units/L were obtained by serial dilution. Iab was incubated in the 10, 100 and 1000 units/L solutions (n=2) at 37° C. for 2 hr. The starting concentration of Iab in the incubation was 10 μM. Aliquots of 100 μL samples were taken at pre-determined times and added into K2EDTA microtainers followed by the addition of 200 μL of acetonitrile. […]
Remember to follow the number with its unit.

Req: Reported half-life at 10 μM for `COc1cnc(OC)c2c1c(C(=O)C(=O)N1CCN(C(=O)c3ccccc3)CC1)cn2COP(=O)(O)O` : what is it?
Resp: 14 min

Req: Using the record for `O=C(C(=O)N1CCN(C(=O)c2ccccc2)CC1)c1cn(COP(=O)(O)O)c2c(-n3ccnn3)ncc(F)c12` , report its half-life at 10 μM.
Resp: 16 min

Req: Would you mind telling me what half-life at 10 μM value was observed for `COc1cnc(-n2cnc(C)n2)c2c1c(C(=O)C(=O)N1CCN(C(=O)c3ccccc3)CC1)cn2COP(=O)(O)O` ?
Resp: 29 min
